biological target: human PDE10A (UniProt Q9Y233); experiment: Measurement of PDE activity (recombinant enzyme, HTRF cAMP kit); type: biochemical; settings: Table 1, substrate 20 nM for PDE10, 60 minutes at 29 C, read-out: IC50
Sequence (Q9Y233 290-1055 limits assumed): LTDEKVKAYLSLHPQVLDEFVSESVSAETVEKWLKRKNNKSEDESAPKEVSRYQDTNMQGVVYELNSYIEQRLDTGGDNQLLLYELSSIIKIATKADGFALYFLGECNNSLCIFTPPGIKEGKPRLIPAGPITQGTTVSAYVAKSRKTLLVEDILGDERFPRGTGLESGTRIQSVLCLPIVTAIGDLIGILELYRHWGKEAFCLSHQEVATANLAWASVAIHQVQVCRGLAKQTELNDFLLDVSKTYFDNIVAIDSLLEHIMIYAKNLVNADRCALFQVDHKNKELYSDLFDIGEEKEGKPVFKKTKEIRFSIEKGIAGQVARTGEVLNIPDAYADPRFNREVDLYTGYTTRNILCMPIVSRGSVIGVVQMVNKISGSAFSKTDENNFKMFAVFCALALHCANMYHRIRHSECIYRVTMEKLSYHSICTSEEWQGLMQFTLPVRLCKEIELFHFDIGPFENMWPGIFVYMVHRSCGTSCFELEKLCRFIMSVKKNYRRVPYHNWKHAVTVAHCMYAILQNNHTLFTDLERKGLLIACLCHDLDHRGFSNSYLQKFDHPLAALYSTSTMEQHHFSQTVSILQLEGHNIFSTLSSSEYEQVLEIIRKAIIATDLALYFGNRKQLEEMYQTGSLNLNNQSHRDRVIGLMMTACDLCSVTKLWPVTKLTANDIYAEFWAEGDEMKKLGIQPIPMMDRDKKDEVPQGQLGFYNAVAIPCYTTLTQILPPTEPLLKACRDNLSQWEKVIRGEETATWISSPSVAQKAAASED
pIC50: −log10 of the molar value. Counter-ions that a name gives are not always drawn.
readout: pIC50

INSERT INTO measurements (molecule, val) VALUES
  ('O=c1c2c(-c3ccncc3)csc2ccn1C1CC1c1ccc2ccccc2n1 (racemic) [Example 224]', '> 7.00'),
  ('O=c1c2c(N3CCS(=O)(=O)CC3)cccc2cnn1CCc1ccc2ccccc2n1', '> 7.00'),
  ('N#CC1CCN(c2cccc3ccn([C@@H]4C[C@H]4c4ccc5ccccc5n4)c(=O)c23)CC1 (relative stereo)', '> 7.00'),
  ('O=c1c2c(-c3ccc4cc[nH]c4c3)csc2cnn1CCc1ccc2ccccc2n1', '> 7.00'),
  ('COc1ncccc1-c1csc2cnn(CCc3ccc4ccccc4n3)c(=O)c12', '6.30 to 6.70'),
  ('O=c1c2c(-c3ccncc3O)csc2ccn1CCc1ccc2ccccc2n1 [Example 203, hydrochloride]', '6.30 to 6.70'),
  ('O=c1c2c(-c3cncnc3)cccc2ccn1C1CC1c1ccc2ccccc2n1 (single isomer, unassigned) [Example 240a]', '> 7.00'),
  ('O=c1c2c(-c3cncnc3)csc2cnn1C1CC1c1ccc2ccccc2n1 (centres unmarked)', '> 7.00');

---

Entries and their pIC50
target: UniProt:Q9Y233; assay: Measurement of PDE activity (recombinant enzyme, HTRF cAMP kit); format: biochemical; conditions: Table 1, substrate 20 nM for PDE10, 60 minutes at 29 C, read-out: IC50
pIC50: −log10 of the molar value. Where a name gives a salt, the structure may show the parent alone.
readout: pIC50

INSERT INTO results (compound, val) VALUES
  ('O=c1c2c(-c3ccncc3)cccc2cnn1C1CC1c1ccc2ccccc2n1 (racemic)', '> 7.00'),
  ('O=c1c2c(N3CCC(F)(F)CC3)cccc2cnn1CCc1cn2ccccc2n1', '6.70 to 7.00'),
  ('O=c1c2c(-c3ccc(F)cc3)cccc2cnn1CCc1ccc2ccccc2n1', '6.70 to 7.00'),
  ('O=c1c2c(-c3ccncc3F)cccc2ccn1[C@@H]1C[C@H]1c1ccc2ccccc2n1 (relative stereo)', '> 7.00'),
  ('O=c1c2c(-c3cccc4[nH]ccc34)csc2cnn1CCc1ccc2ccccc2n1', '6.70 to 7.00'),
  ('O=c1c2c(N3CCC(C(F)F)C3)cccc2ccn1C1CC1c1ccc2ccccc2n1 (centres unmarked)', '6.70 to 7.00'),
  ('O=c1c2c(-c3cc[nH]n3)csc2cnn1CCc1ccc2ccccc2n1', '> 7.00'),
  ('O=c1c2c(-c3ccncc3)cccc2cnn1/C=C/c1ccc2ccccc2n1', '> 7.00'),
  ('O=c1c2c(N3CCOCC3)cccc2ccn1C1CC1c1ccc2ccccc2n1 (single isomer, unassigned) [Example 246a]', '> 7.00'),
  ('N#Cc1ccc(-c2csc3cnn(CCc4ccc5ccccc5n4)c(=O)c23)cc1', '> 7.00'),
  ('O=c1c2c(-c3cccnc3)csc2ccn1CCc1cn2ccccc2n1', '> 7.00'),
  ('Cc1ccccc1-c1cccc2cnn(CCc3ccc4ccccc4n3)c(=O)c12', '6.30 to 6.70'),
  ('O=c1c2c(-c3ccc4c(c3)OCCO4)csc2cnn1CCc1ccc2ccccc2n1', '6.30 to 6.70'),
  ('O=c1c2c(N3CCOCC3)csc2ccn1CCc1ccc2ccccc2n1 [Example 211, hydrochloride]', '6.30 to 6.70'),
  ('O=c1c2c(-c3ccc4c(c3)CCO4)cccc2cnn1CCc1ccc2ccccc2n1', '6.30 to 6.70'),
  ('O=c1c2c(-c3ccncc3)csc2ccn1CCc1ccc2cccc(F)c2n1', '6.30 to 6.70'),
  ('O=c1c2c(-c3ccncc3)coc2ccn1CCc1ccc2ccccc2n1 [Example 228, hydrochloride]', '> 7.00');
